- tgt: gp5-HT4 (Cavia porcellus, UniProt O70528)
- Sequence (O70528 whole entry): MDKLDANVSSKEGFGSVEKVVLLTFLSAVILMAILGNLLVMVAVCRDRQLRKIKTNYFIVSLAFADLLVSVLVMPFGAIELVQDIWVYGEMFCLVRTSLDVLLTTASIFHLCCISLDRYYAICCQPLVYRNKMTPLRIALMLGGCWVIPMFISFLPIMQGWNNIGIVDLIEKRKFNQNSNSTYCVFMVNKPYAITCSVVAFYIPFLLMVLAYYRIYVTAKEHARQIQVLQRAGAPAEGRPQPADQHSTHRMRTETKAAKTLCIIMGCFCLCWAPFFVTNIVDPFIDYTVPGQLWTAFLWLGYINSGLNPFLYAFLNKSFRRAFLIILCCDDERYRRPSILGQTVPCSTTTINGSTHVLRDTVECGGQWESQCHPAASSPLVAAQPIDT
- measurement.description: Radioligand binding assay, gp5-HT4
- Design: species or system guinea pig
- test.settings: read-out: Affinity [ki (nM)]
test.readout: Ki

// map Cc1nn(C)c(C)c1-c1cccc2c1CC[C@H](N(C)C)C2 [AS-19] to recorded Ki (system: gp5-HT4 (Cavia porcellus, UniProt O70528))
> 1000 nM

====

- tgt: UniProtKB P34969
- test.settings: read-out: Affinity [ki (nM)]
test.readout: Ki (nM)
Give just the number in nM; leave the unit off.

# lookup: Ki of Cc1cccc(S(=O)(=O)N(C)[C@H](C)CCN2CCC(C)CC2)c1 [SB-258719]
31.6

====

- tgt: h5-HT1A (Homo sapiens, UniProt P08908)
- Sequence (P08908 whole entry): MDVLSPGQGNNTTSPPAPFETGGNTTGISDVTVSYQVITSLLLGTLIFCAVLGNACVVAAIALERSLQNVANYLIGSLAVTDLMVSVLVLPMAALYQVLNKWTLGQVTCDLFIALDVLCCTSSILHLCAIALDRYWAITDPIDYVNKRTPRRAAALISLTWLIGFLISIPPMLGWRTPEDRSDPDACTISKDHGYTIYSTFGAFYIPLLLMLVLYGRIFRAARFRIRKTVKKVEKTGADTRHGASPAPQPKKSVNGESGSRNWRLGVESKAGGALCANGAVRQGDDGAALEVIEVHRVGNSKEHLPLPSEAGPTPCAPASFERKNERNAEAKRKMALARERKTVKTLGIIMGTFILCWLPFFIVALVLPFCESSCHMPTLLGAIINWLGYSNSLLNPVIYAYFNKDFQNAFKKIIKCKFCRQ
- measurement.description: Radioligand binding assay, h5-HT1A
test.readout: Ki (nM)
Give the number; nM is assumed, so skip it.

Entry Cc1nn(C)c(C)c1-c1cccc2c1CC[C@H](N(C)C)C2 [AS-19] has what Ki?
89.7

====

- tgt: 5-HT7 receptors (Homo sapiens, UniProt P34969)
- Sequence (P34969 whole entry): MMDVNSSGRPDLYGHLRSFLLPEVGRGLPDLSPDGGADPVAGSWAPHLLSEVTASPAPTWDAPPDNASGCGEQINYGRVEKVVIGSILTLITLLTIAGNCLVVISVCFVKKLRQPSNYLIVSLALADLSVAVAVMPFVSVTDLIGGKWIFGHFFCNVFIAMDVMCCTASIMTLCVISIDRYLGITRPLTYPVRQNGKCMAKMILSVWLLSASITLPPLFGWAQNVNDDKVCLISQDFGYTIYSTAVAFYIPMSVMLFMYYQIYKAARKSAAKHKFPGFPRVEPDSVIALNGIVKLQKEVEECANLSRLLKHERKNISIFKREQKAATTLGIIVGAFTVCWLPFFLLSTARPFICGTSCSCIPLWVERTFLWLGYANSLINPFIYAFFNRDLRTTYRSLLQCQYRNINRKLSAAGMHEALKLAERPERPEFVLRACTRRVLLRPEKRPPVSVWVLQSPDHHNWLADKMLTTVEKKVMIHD
- measurement.description: cAMP measurement (HTRF) in HEK-293F cells stably expressing human 5-HT7 receptors
- Type: cell-based
- Design: expressed in transfected cells; host or cells: HEK-293F
- test.settings: EC50 (nM), cAMP concentration-response curves, HEK-293F cells, human 5-HT7; mean ± SEM
test.readout: EC50 (nM)
Give the value, in units of nM, as a plain number.

What value of EC50 has been reported for the following compound? "Cc1nn(C)c(C)c1-c1cccc2c1CC[C@H](N(C)C)C2"
8.87

====

- tgt: h5-HT5A (Homo sapiens, UniProt P47898)
- Sequence (P47898 whole entry): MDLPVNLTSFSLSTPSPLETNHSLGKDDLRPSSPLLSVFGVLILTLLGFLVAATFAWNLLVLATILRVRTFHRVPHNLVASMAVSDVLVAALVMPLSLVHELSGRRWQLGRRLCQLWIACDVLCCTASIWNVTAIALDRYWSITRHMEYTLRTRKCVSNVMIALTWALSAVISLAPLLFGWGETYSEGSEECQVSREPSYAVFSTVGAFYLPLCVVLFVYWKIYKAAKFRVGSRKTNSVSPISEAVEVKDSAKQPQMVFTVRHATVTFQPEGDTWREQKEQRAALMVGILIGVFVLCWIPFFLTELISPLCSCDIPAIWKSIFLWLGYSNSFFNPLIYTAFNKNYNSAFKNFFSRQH
- measurement.description: Radioligand binding assay, h5-HT5A
- test.settings: read-out: Affinity [ki (nM)]
test.readout: Ki (nM)
Reply with just the number (in nM).

Look at this compound and give its reported Ki. "Cc1nn(C)c(C)c1-c1cccc2c1CC[C@H](N(C)C)C2"
98.5

====

- tgt: h5-HT2B (Homo sapiens)
- Sequence (P41595 whole entry): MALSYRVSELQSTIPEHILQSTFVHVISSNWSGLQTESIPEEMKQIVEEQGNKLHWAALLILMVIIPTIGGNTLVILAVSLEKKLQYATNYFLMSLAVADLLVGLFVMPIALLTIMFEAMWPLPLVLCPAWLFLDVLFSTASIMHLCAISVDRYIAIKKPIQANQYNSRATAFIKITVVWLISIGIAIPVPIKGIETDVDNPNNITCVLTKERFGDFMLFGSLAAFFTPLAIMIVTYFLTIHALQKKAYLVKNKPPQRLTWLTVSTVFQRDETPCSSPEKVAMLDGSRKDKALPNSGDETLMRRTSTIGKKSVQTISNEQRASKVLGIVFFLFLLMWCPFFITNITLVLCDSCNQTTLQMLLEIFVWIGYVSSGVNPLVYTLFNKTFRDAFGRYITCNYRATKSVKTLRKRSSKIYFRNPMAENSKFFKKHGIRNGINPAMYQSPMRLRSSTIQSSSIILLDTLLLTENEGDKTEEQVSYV
- measurement.description: Radioligand binding assay, h5-HT2B
- test.settings: h5-HT2B; read-out: Affinity [ki (nM)]
test.readout: Ki

For Cc1cccc(S(=O)(=O)N(C)[C@H](C)CCN2CCC(C)CC2)c1 [SB-258719] , what is its reported Ki?
> 1000 nM

====

- tgt: UniProtKB P28335
- Sequence (P28335 33-458): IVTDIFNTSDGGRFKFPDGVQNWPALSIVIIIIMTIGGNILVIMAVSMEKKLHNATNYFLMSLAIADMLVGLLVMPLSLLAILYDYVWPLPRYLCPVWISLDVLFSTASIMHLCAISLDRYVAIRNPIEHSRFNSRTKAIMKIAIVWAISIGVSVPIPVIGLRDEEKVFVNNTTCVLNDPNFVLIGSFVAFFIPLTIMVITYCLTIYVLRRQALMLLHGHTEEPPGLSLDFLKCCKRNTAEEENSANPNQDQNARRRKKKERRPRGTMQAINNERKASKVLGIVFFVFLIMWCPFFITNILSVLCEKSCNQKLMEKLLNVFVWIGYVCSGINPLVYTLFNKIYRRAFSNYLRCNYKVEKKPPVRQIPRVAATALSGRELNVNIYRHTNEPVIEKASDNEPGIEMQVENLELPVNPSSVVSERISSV
- measurement.description: Radioligand binding assay, h5-HT2C
pKi: −log10 of the molar value.
test.readout: pKi

Find the recorded pKi belonging to "Cc1nn(C)c(C)c1-c1cccc2c1CC[C@H](N(C)C)C2" and report it.
< 6.00

====

- tgt: h5-HT1D (Homo sapiens, UniProt P28221)
- Sequence (P28221 whole entry): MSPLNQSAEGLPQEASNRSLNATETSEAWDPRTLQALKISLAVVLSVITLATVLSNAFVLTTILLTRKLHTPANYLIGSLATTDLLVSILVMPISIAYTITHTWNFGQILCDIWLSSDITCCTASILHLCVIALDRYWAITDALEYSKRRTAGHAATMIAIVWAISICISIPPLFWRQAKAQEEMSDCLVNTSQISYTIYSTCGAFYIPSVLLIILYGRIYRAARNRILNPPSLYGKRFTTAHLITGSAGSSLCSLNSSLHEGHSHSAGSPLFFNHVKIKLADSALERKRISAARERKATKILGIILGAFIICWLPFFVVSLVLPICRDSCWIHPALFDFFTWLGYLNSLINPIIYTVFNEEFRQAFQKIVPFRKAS
- measurement.description: Radioligand binding assay, h5-HT1D
- test.settings: read-out: Affinity [ki (nM)]
test.readout: Ki

Given the molecule "Cc1cccc(S(=O)(=O)N(C)[C@H](C)CCN2CCC(C)CC2)c1" , what is its reported Ki?
> 1000 nM
